Entry source: ChEMBL document CHEMBL1140863

I'd be grateful if you could share measured CC50 for these entries.
Experiment: Cytotoxicity against human KB cells by visual assay
Type: cell-based

Known results for compounds:
compoundStructureString	CC50
O=Cc1ccc(OCCN2CCN(c3cc(Cl)nnc3Cl)CC2)cc1	56 mg/L
CCCCc1ccc(OCCN2CCN(c3cc(Cl)nnc3Cl)CC2)cc1	10 mg/L
CCOC(=O)c1ccc(OCCC2CCN(c3ccc(C)nn3)CC2)cc1	> 10 mg/L
CCOC(=O)c1ccc(OCCC2CCN(c3ccnnc3Cl)CC2)nc1	> 100 mg/L
Clc1cc(N2CCN(CCOc3ccc(-n4cnnc4)cc3)CC2)c(Cl)nn1	35 mg/L

Your task in this section: give CC50 for each listed record.
1. COC(=O)c1ccc(OCCC2CCN(c3cc(Cl)nnc3Cl)CC2)cc1
2. CCOc1ccc(OCCN2CCN(c3cc(Cl)nnc3Cl)CC2)cc1

1. 30 mg/L
2. 35 mg/L

* * *

What Ratio CC50/EC50 was measured for each of the following?
Experiment: Selectivity index, ratio of CC50 for human KB cells to EC50 for HRV14 by visual assay
Give bare numbers.

compoundStructureString	Ratio CC50/EC50
COC(=O)c1ccc(OCCC2CCN(c3cc(Cl)nnc3Cl)CC2)cc1	8
CCOc1ccc(OCCN2CCN(c3cc(Cl)nnc3Cl)CC2)cc1	972
CCCCc1ccc(OCCN2CCN(c3cc(Cl)nnc3Cl)CC2)cc1	120

Attention now turns to another entry.
Reported Ratio CC50/EC50 of Clc1cc(N2CCN(CCOc3ccc(-n4cnnc4)cc3)CC2)c(Cl)nn1 : 3

* * *

Assay: Cytotoxicity against human KB cells by neutral red uptake assay
Type: cell-based
Assign CC50 to each entry below.
One number for each entry, in µg/mL.

Look at each compound and report its CC50.
1. CCCCc1ccc(OCCN2CCN(c3cc(Cl)nnc3Cl)CC2)cc1
2. Clc1cc(N2CCN(CCOc3ccc(-n4cnnc4)cc3)CC2)c(Cl)nn1
3. COC(=O)c1ccc(OCCC2CCN(c3cc(Cl)nnc3Cl)CC2)cc1

1: 1.9; 2: 39; 3: 4.7

For every listed record, write down its CC50.
1. CCOc1ccc(OCCN2CCN(c3cc(Cl)nnc3Cl)CC2)cc1
2. O=Cc1ccc(OCCN2CCN(c3cc(Cl)nnc3Cl)CC2)cc1

12
43

* * *

Assay: Selectivity index, ratio of CC50 for human KB cells to EC50 for HRV2 by visual assay
readout: Ratio CC50/EC50

Consider the reported Ratio CC50/EC50 for these compounds:
compoundStructureString	readout	measuredValue
CCCCc1ccc(OCCN2CCN(c3cc(Cl)nnc3Cl)CC2)cc1	Ratio CC50/EC50	1.8
COC(=O)c1ccc(OCCC2CCN(c3cc(Cl)nnc3Cl)CC2)cc1	Ratio CC50/EC50	97

Can you give me Ratio CC50/EC50 for all of these, one by one?
1. CCOC(=O)c1ccc(OCCC2CCN(c3ccnnc3Cl)CC2)nc1
2. CCOC(=O)c1ccc(OCCC2CCN(c3ccc(C)nn3)CC2)cc1

>3125
>3125

* * *

Provide the recorded Ratio CC50/EC50 for the entries that follow.
Assay: Selectivity index, ratio of CC50 for human KB cells to EC50 for HRV2 by neutral red uptake assay
Give bare numbers.

compoundStructureString	measuredValue
COC(=O)c1ccc(OCCC2CCN(c3cc(Cl)nnc3Cl)CC2)cc1	58

Entry O=Cc1ccc(OCCN2CCN(c3cc(Cl)nnc3Cl)CC2)cc1 , Ratio CC50/EC50 reported as 1.1

* * *

Assay: Selectivity index, ratio of CC50 for human KB cells to EC50 for HRV14 by visual assay
For each of the molecules below, state its Ratio CC50/EC50.

compoundStructureString	Ratio CC50/EC50
CCOC(=O)c1ccc(OCCC2CCN(c3ccnnc3Cl)CC2)nc1	>3125
O=Cc1ccc(OCCN2CCN(c3cc(Cl)nnc3Cl)CC2)cc1	>2

Looking up CCOC(=O)c1ccc(OCCC2CCN(c3ccc(C)nn3)CC2)cc1 , I see its Ratio CC50/EC50 listed as >123
